Target: T1, LGR7 (leucine-rich repeat-containing GPCR 7) (human, UniProt Q9HBX9 1-757)
T1 sequence (looked up): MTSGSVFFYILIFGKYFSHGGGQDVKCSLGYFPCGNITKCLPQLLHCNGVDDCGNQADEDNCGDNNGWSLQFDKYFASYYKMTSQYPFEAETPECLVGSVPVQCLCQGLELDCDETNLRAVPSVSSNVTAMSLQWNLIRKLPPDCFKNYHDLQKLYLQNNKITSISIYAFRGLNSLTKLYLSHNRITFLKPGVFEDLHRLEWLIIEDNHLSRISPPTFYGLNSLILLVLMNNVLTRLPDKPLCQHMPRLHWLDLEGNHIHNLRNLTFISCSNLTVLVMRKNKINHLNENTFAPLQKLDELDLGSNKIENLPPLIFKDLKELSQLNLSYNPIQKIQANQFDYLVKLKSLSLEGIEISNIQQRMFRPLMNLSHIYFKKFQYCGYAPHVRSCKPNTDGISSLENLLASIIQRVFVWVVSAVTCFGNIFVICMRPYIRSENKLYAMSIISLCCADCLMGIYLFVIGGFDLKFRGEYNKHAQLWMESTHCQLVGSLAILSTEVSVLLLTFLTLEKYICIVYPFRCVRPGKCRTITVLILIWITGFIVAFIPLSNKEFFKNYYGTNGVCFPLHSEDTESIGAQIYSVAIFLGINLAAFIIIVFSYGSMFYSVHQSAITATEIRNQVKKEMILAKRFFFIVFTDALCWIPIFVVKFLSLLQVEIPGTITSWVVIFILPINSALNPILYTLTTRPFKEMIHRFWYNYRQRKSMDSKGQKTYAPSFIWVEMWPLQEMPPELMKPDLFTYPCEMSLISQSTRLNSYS
Assay: cell-based or functional assay
Where no end group is shown, it is not given here.
// pEC50, stimulation of cAMP production in LGR7-expressing HEK293T cells lookup, one value per entry
Quick one: just the number, no unit, thanks!

Examples with answers:
RLN2 R^A22A (ligand, not shown: small tags and cut ends, not fully specified; ends and bridges not checked; also: N-terminal Myc epitope tag, Construct with the 8-amino acid linker, processed to the mature two-chain form) chain 1: SWMEEVIKLCGRELVRAQIAICGMSTWSHHHHHH chain 2: QLYSALANKCCHVGCTKRSLAAFC : 10
RLN2 T^A16A (ligand, not shown: small tags and cut ends, not fully specified; ends and bridges not checked; also: N-terminal Myc epitope tag, Construct with the 8-amino acid linker, processed to the mature two-chain form) chain 1: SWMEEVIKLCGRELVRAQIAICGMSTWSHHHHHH chain 2: QLYSALANKCCHVGCAKRSLARFC : 9.75

Now for the binder whose pEC50, stimulation of cAMP production in LGR7-expressing HEK293T cells we want.
Param item = RLN2^A19-20 (ligand, not shown: small tags and cut ends, It is read here as both residues changed to alanine) chain 1: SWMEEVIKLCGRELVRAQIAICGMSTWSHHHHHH chain 2: QLYSALANKCCHVGCTKRAAARFC ; retrieve measured pEC50, stimulation of cAMP production in LGR7-expressing HEK293T cells.
8.56
